assay: Cytotoxicity against mouse AML12 cells assessed as reduction in cell viability incubated for 48 hrs by MTT assay; assay type: toxicity, cell-based
experimentalReadout: CC50 at 48 h (µM)

chemicalSmiles: CC[C@H]1OC(=O)[C@@](C)(F)C(=O)[C@H](C)[C@@H](O[C@@H]2O[C@H](C)C[C@H](N(C)C)[C@H]2O)[C@](C)(OC)C[C@@H](C)C(=O)[C@H](C)[C@H]2N(CCCOC(=O)Nc3ccc4c(c3)OCO4)C(=O)O[C@]12C
valueObserved: 85.6
//
chemicalSmiles: CC[C@H]1OC(=O)[C@H](C)C(=O)[C@H](C)[C@@H](O[C@@H]2O[C@H](C)C[C@H](N(C)C)[C@H]2O)[C@](C)(OC)C[C@@H](C)C(=O)[C@H](C)[C@H]2N(CCCOC(=O)Nc3ccc(C)cc3)C(=O)O[C@]12C
valueObserved: 20.8
